tested on: PF T. brucei parasites (29-13, a 427 strain); test: Procyclic form (PF) parasite growth assay; type: cell-based; conditions: Trypanosoma brucei, A-427, 48 h; procyclic form parasites, 10 µM, 2 days; read-out: % PF Growth Inhibition (10 µM)
propertyLabel: inhibition at 10 µM (%)

> print(dat)
                                   compound        propertylabel  unitabbreviation  recordedvalue
1  COc1ccc(C(=O)Nc2cc(Cl)ccc2C(=O)O)cc1 [SID 24797131]  inhibition at 10 µM                 %              0
2  O=c1c2ccccc2[se]n1-c1ccccc1 [Ebselen, 2-phenyl-1,2-benzisoselenazol-3(2H)-one, reference compound]  inhibition at 10 µM                 %             51
3  O=C(Cn1sc2ccccc2c1=O)NC12CC3CC(CC(C3)C1)C2 [SID 16952891]  inhibition at 10 µM                 %             47
4  CCCCCCCCCCCNC(=O)c1ccoc1C [SID 14728414]  inhibition at 10 µM                 %              0

----------
Listing of recorded IC50 by entry.
biological target: TbHK1 (Trypanosoma brucei brucei, UniProt Q38C42); test: TbHK1 coupled enzyme HTS assay (G6PDH coupled, bacterially expressed rTbHK1); assay type: biochemical; details: resupplied compound, bacterially expressed TbHK1; read-out: IC50 (µM) Resupply
Sequence (Q38C42 entry or part of it): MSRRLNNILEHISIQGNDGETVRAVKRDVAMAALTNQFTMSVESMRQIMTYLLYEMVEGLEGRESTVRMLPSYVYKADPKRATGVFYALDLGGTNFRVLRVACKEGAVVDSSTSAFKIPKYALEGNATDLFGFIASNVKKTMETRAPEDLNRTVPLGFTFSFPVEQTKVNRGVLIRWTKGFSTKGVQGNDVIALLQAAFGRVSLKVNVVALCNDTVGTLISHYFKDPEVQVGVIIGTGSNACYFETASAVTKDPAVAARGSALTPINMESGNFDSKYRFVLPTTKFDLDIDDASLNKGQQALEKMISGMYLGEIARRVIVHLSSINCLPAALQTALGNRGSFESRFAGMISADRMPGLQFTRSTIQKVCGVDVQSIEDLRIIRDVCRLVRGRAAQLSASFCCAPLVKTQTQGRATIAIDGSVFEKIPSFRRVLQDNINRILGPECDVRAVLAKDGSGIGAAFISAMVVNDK
propertyLabel: IC50

> print(dat)
                                   compound  recordedvalue
1  COC1=C/C(=C/C(C#N)=C2/NC3=C(CCCC3)S2)C=CC1=O        33.6 µM
2  O=c1c2ccccc2[se]n1-c1ccccc1 [Ebselen, 2-phenyl-1,2-benzisoselenazol-3(2H)-one, reference compound]        0.05 µM
3                 CCCCCCCCCCCNC(=O)c1ccoc1C        41.7 µM
4              Cc1ccccc1-n1sc2cc(F)ccc2c1=O         4.2 µM
5        CCOC(=O)Cc1csc(-n2sc3ccccc3c2=O)n1         9.3 µM
6      COc1ccc(C(=O)Nc2cc(Cl)ccc2C(=O)O)cc1        11.4 µM
7  O=C(Cn1sc2ccccc2c1=O)NC12CC3CC(CC(C3)C1)C2         2.6 µM

----------
test system: BSF T. brucei parasites (cell line 90-13, a 427 strain); test: T. brucei BSF viability assay (CellTiter Blue); type: cell-based, Trypanosoma brucei; conditions: Trypanosoma brucei, A-427, 72 h, read-out: BSF EC50 (µM)
propertyLabel: EC50 (µM)

> print(dat)
                querysmiles  recordedvalue
1   O=c1c2ccccc2sn1-c1nccs1           0.83
2  O=c1c2ccccc2sn1-c1ccccc1           0.03

----------
Listing of recorded inhibition at 10 µM by entry.
System: PF T. brucei parasites (29-13, a 427 strain)
Experiment: Procyclic form (PF) parasite growth assay
Assay type: cell-based
Conditions: Trypanosoma brucei, A-427, 48 h; procyclic form parasites, 10 µM, 2 days; read-out: % PF Growth Inhibition (10 µM)
Description: Plates were then incubated for 1 hr under standard culture conditions. Fluorescence of samples was then characterized as above.
propertyLabel: inhibition at 10 µM

> print(dat)
                                   compound        propertylabel  recordedvalue
1              Cc1ccccc1-n1sc2cc(F)ccc2c1=O  inhibition at 10 µM            47%
2  C/C(=C/CCC(C)[C@H]1CC[C@@]2(C)C3=C(CC[C@]12C)[C@@]1(C)CCC(=O)C(C)(C)[C@@H]1CC3)C(=O)O (stereo partly shown)  inhibition at 10 µM             0%
3        CCOC(=O)Cc1csc(-n2sc3ccccc3c2=O)n1  inhibition at 10 µM            27%
4  COC1=C/C(=C/C(C#N)=C2/NC3=C(CCCC3)S2)C=CC1=O  inhibition at 10 µM            50%

----------
Target: human HK 4 (human glucokinase, hGlk) (Homo sapiens)
Construct: His tag (from pQE30); made in house; host or cells: E. coli M15 (pREP)
Sequence (P35557 whole entry): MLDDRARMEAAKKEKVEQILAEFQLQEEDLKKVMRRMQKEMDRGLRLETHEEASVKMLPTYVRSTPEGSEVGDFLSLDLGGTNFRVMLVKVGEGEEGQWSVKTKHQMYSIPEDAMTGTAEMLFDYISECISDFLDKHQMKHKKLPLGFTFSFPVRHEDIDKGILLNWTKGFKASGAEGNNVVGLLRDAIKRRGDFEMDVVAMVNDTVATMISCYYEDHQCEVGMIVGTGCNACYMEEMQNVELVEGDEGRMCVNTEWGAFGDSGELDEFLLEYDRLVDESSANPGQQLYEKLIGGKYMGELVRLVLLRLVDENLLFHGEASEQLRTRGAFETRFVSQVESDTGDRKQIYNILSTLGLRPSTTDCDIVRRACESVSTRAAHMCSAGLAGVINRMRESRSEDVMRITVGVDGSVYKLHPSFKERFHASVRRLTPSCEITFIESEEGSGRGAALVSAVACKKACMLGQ
Test: Specificity assay against human HK 4 (human glucokinase, hGlk)
Type: biochemical
Conditions: 10 µM compound; read-out: % Inhibition of hGlck (10 µM)
Description: Additional specificity assays were performed using human HK 4 (human glucokinase, hGlk, GenBank accession no. BC001890) that was expressed from a cloned cDNA (OPEN Biosystems, Huntsville, AL) in pQE30.
Listing of recorded inhibition at 10 µM by entry.
propertyLabel: inhibition at 10 µM

> print(dat)
                                   molecule  recordedvalue
1        CCOC(=O)Cc1csc(-n2sc3ccccc3c2=O)n1           7.8%
2                   O=c1c2ccccc2sn1-c1nccs1          88.8%
3  O=c1c2ccccc2[se]n1-c1ccccc1 [Ebselen, 2-phenyl-1,2-benzisoselenazol-3(2H)-one, reference compound]          97.8%
4              Cc1ccccc1-n1sc2cc(F)ccc2c1=O           6.9%
5      COc1ccc(C(=O)Nc2cc(Cl)ccc2C(=O)O)cc1           6.3%
6                 CCCCCCCCCCCNC(=O)c1ccoc1C           1.9%
7  O=C(Cn1sc2ccccc2c1=O)NC12CC3CC(CC(C3)C1)C2          44.9%
8  C/C(=C/CCC(C)[C@H]1CC[C@@]2(C)C3=C(CC[C@]12C)[C@@]1(C)CCC(=O)C(C)(C)[C@@H]1CC3)C(=O)O (stereo partly drawn)             0%
9  COC1=C/C(=C/C(C#N)=C2/NC3=C(CCCC3)S2)C=CC1=O          70.3%

----------
molecular target: T. brucei lysate-derived TbHK1 (Trypanosoma brucei brucei, UniProt Q38C42); assay: Inhibition assay of lysate-derived TbHK; conditions: read-out: IC50 against T. brucei lysate-derived TbHK1 enzymatic activity; 2×10^5 BSF cell equivalents, 15 min preincubation at RT
Sequence (Q38C42 entry or part of it): as the sequence (Q38C42 entry or part of it) above
propertyLabel: IC50 (nM)

> print(dat)
                                   compound  recordedvalue
1  O=c1c2ccccc2[se]n1-c1ccccc1 [Ebselen, 2-phenyl-1,2-benzisoselenazol-3(2H)-one, reference compound]            430
